Test system: Hepatotoxicity
Assay Summary: FDA HLAED, lactate dehydrogenase (LDH) increase
Condition Set: human
Readout Kind: LDH Increase - Activity Score

O=C1c2c(O)ccc(O)c2C(=O)c2c(NCCNCCO)ccc(NCCNCCO)c21
Inactive
CCCCc1nc(Cl)c(CO)n1Cc1ccc(-c2ccccc2-c2nn[nH]n2)cc1
Inactive
Fc1ccccc1C1=NCC(=S)N(CC(F)(F)F)c2ccc(Cl)cc21
Inactive
COCCCC/C(=N\OCCN)c1ccc(C(F)(F)F)cc1
Inactive
CCOC(=O)Nc1ccc2c(c1)N(C(=O)CCN1CCOCC1)c1ccccc1S2
Inactive
CC(=O)O[C@H]1C(=O)[C@@]2(C)[C@H]([C@H](OC(=O)c3ccccc3)[C@]3(O)C[C@H](OC(=O)[C@H](O)[C@@H](NC(=O)c4ccccc4)c4ccccc4)C(C)=C1C3(C)C)[C@]1(OC(C)=O)CO[C@@H]1C[C@@H]2O
Inactive
CC(C)c1ccc2oc3nc(N)c(C(=O)O)cc3c(=O)c2c1
Inactive

Please fill in: LDH Increase - Activity Score reported for CCOC(=O)[C@H](CCc1ccccc1)N[C@H]1CCc2ccccc2N(CC(=O)O)C1=O = Inactive
